# ASSAYED_SYSTEM: Saos-2 PTH1R (Homo sapiens, UniProt Q03431)
# Construct: endogenous in cells; host or cells: Saos-2
# Sequence (Q03431 27-593): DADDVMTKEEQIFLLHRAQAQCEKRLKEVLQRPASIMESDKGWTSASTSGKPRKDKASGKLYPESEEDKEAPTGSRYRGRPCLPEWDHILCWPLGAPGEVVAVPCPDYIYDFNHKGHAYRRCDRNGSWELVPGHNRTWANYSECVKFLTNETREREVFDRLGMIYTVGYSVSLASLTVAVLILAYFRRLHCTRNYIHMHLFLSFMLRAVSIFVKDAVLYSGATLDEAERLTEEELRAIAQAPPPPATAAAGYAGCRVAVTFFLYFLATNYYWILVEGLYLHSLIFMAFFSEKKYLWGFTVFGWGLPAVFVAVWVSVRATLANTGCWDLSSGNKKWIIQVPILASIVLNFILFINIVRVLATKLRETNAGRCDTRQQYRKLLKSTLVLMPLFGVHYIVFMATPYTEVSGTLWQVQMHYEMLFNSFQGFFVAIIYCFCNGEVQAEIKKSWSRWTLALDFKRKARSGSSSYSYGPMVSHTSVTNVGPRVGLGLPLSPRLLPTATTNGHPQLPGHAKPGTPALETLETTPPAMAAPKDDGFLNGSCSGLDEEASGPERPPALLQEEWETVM
# MEASUREMENT_PROTOCOL: cAMP-efficacy assay in Saos-2 cells
# Assay type: cell-based
# ASSAY_CONTEXT: relative effect to the control (SEQ ID NO: 32)
Bridge positions count the residues as written; N and C are the ends. Square brackets hold non-standard residues; d marks the D form. Peptide text beside a SMILES is read from it. hArg = N=C(N)NCCCC[C@H](N)C(=O)O; Ac5c = NC1(C(=O)O)CCCC1; Aib = CC(C)(N)C(=O)O
Emax ± SEM reference
Respond numerically, and do not add a unit to the figure.

Past entries and their recorded results:
CC[C@H](C)[C@H](NC(=O)[C@H](CCC(=O)O)NC(=O)C(C)(C)NC(=O)[C@@H](NC(=O)C1(N)CCCC1)C(C)C)C(=O)N[C@@H](CCC(N)=O)C(=O)N[C@@H](CC(C)C)C(=O)N[C@@H](CCSC)C(=O)N[C@@H](Cc1c[nH]cn1)C(=O)N[C@@H](CC(N)=O)C(=O)N[C@@H](CC(C)C)C(=O)NCC(=O)N[C@@H](CCCCN)C(=O)N[C@@H](Cc1c[nH]cn1)C(=O)N[C@@H](CC(C)C)C(=O)N[C@@H](CC(N)=O)C(=O)N[C@@H](CO)C(N)=O [SEQ ID NO: 35] (H-[Ac5c]V[Aib]EIQLMHNLGKHLNS-NH2)    1.20
CC[C@H](C)[C@H](NC(=O)[C@H](CCC(=O)O)NC(=O)C(C)(C)NC(=O)[C@@H](NC(=O)C1(N)CCCC1)C(C)C)C(=O)N[C@@H](CCC(N)=O)C(=O)N[C@@H](CC(C)C)C(=O)N[C@@H](CCSC)C(=O)N[C@@H](Cc1c[nH]cn1)C(=O)N[C@@H](CCC(N)=O)C(=O)N[C@@H](CCCCNC(=N)N)C(=O)N[C@@H](C)C(=O)N[C@@H](CCCCN)C(=O)N[C@@H](Cc1c[nH]c2ccccc12)C(N)=O [SEQ ID NO: 31, reference compound] (H-[Ac5c]V[Aib]EIQLMHQ[hArg]AKW-NH2)    1.07
CC[C@H](C)[C@H](NC(=O)[C@H](CCC(=O)O)NC(=O)C(C)(C)NC(=O)[C@@H](NC(=O)C1(N)CCCC1)C(C)C)C(=O)N[C@@H](CCC(N)=O)C(=O)N[C@@H](CC(C)C)C(=O)N[C@@H](CCSC)C(=O)N[C@@H](Cc1c[nH]cn1)C(=O)N[C@@H](CCC(N)=O)C(=O)N[C@@H](CCCCNC(=N)N)C(=O)N[C@@H](C)C(=O)N[C@H]1CCCCNC(=O)C[C@@H](C(N)=O)NC(=O)[C@H](CC(C)C)NC(=O)[C@H](Cc2c[nH]c3ccccc23)NC1=O [SEQ ID NO: 30] (H-[Ac5c]V[Aib]EIQLMHQ[hArg]AKWLD-NH2; lactam 13-16)    1.04

## Task What value of measured Emax ± SEM is listed for CC[C@H](C)[C@H](NC(=O)[C@H](CCC(=O)O)NC(=O)C(C)(C)NC(=O)[C@@H](NC(=O)C1(N)CCCC1)C(C)C)C(=O)N[C@@H](CCC(N)=O)C(=O)N[C@@H](CC(C)C)C(=O)N[C@@H](CCSC)C(=O)N[C@@H](Cc1c[nH]cn1)C(=O)N[C@@H](CC(N)=O)C(=O)N[C@@H](CC(C)C)C(=O)NCC(=O)N[C@H]1CCCCNC(=O)C[C@@H](C(N)=O)NC(=O)[C@H](CC(N)=O)NC(=O)[C@H](CC(C)C)NC(=O)[C@H](Cc2c[nH]cn2)NC1=O [SEQ ID NO: 34] (H-[Ac5c]V[Aib]EIQLMHNLGKHLND-NH2; lactam 13-17) ?
## Result 1.12

Values from patent US20100048462A1
